# assayOverview: soluble on expression in E. coli; label from the status in PepcDB or PDB records
reportedMetric: soluble on expression in E. coli

# annotated cases, reported soluble on expression in E. coli shown
[[record]]
inputsequence = "MLLCDTNIWLALALSGHVHHRASRAWLDTINAPGVIHFCRATQQSLLRLLTNRTVLGAYGSPPLTNREAWAAYAAFLDDDRIVLAGAEPDGLEAQWRAFAVRQSPAPKVWMDAYLAAFALTGGFELVTTDTAFTQYGGIELRLLAK"
testvalue = "not soluble"

[[record]]
inputsequence = "MDEQISKSQKKRDAHYLQDIGIKFIDLSASKLDSLPLPDNLRQAIVDARSIKSHGAKRRQAQLIGKLMRAADFEAILAAYEKILEEESSVTASFHEIELWRDRLLQDGKDALTEFIDAYQPEDVQQLRQLIKKALDDQMKEKNTGAAKALFRYLRSLIK"
testvalue = "not soluble"

[[record]]
inputsequence = "MGSDKIHHHHHHMPKVEIAPSEIKIPDNVLKAKLGFGGAEEIPEEFRKTVNRAYEELLDAAKPVVLWRDFEVDGSLSFDDMRLTGELATKHLSGSKIITVFLATLGKKVDEKIEEYFRKGEDLLAFFIDGIASEMVEYALRKVDAELRMKRSNLEGSFRISPGYGDLPLSLNKKIAEIFKEEVDVNVIEDSYVLVPRKTITAFVGWREKNEKQT"
testvalue = "soluble"

[[record]]
inputsequence = "SKKQLDMSQKKTLTIDSELRFDELSLDTVRDFEKLAPFGMDNKKPVFLLKDFKVSQARVMGQNGAHLKLKLEQDGQALDLVAFNMGSQLQEFQQAQHLELAVTLSVNQWNGATTLQ"
testvalue = "not soluble"

[[record]]
inputsequence = "MSLQINVNPQAALSQNAIVNNSSFSLVSKDVRSAQYVALVDSGRNNIEPIHPRQNVRITLENALAEQFGSQGFRLSVNSENTITLEIQELLVSVKHSIMENQMDGSVVLEITAETPRGKLVKSYTGTAKRTGVLSASNDEIETVLNDVINTVLKEIANDAELQNYMQERFNGEGHHHHHH"
testvalue = "soluble"


soluble on expression in E. coli measured on `MHHHHHHSSGVDLGTENLYFQSMASSHLNKGIKQVYMSLPQGEKVQAMYIWIDGTGEGLRCKTRTLDSEPKCVEELPEWNFDGSSTLQSEGSNSDMYLVPAAMFRDPFRKDPNKLVLCEVFKYNRRPAETNLRHTCKRIMDMVSNQHPWFGMEQEYTLMGTDGHPFGWPSNGFPGPQGPYYCGVGADRAYGRDIVEAHYRACLYAGVKIAGTNAEVMPAQWEFQIGPCEGISMGDHLWVARFILHRVCEDFGVIATFDPKPIPGNWNGAGCHTNFSTKAMREENGLKYIEEAIEKLSKRHQYHIRAYDPKGGLDNARRLTGFHETSNINDFSAGVANRSASIRIPRTVGQEKKGYFEDRRPSANCDPFSVTEALIRTCLLNETG` = soluble

soluble on expression in E. coli measured on `MSLTGLCDSHLHTPLCGHATGTPREYAQAALDAGLSGLCFTDHMPMPRWYDAPWRMKLEQLPEYIAEIQAVQQEFAGRLDVRLGLEADFHPGTEKFVEKVLGMFDWDYVIGSVHYLGAWGFDNPEFVAEYEERDLGGLYRDYYALVEGAARSGLFDAIGHLDLPKKFGHLDPDPVYALHALDVVAGQGLALDFNTAGWRKPVAEAYPAPDLVRAAAERGIPFVLGSDAHQPGEVGFRFADAVKEIRDVGGRTVTFRHRKMQEGHHHHHH` = soluble

soluble on expression in E. coli measured on `MEECAVSGGFDVSPQELRTFAGKLDVHRSTAEEIAGLVTEADVPERSWGVVGLVVKSECTRMLGDLNELFTALQEGLRSGSEKFTGAAQDYTDQEEAVKELLSGLQVRLDERQGGR` = not soluble

soluble on expression in E. coli measured on `MEQINEKNFNFYNRIGLDTFQALAKDGGFSTFVDLEIAYRYIQPTENIAEIGAGYGRCIDFLLAKKHQGKIIAVEQSPKLCEHLRAVYSSTIKIVEGDIYKVSFDHQIDAALWMWSGMIDFSVEEQAAVIKHIHELLTQKGKLFIDIPRIGIKTIADHIDQQRIKLTTDFGEIECYIPLSSEVKEYADAAGFTRVDEINYETATDKKRTMYILMK` = not soluble

soluble on expression in E. coli measured on `MSERLYYFVIVGRDDRVLYDLLYPASLSELDWRTSSELSSPAERGDFEPHHFIPSIQVLLQFVAYSALDHIEEKYWLTSARSLKHIFRFRDWSASVQLTPNAATRFVLVHGASDDASRNVRAFLHAVYEAYVPHVVCNPFQEEDAPITSKRFHEVAKNLAKRYFSG` = not soluble

soluble on expression in E. coli measured on `MSLSGRYNMNIILGATGQVGSMLVDNLLGKGQPVRAVVRDGLKAQGLKNKGVEVKIADYLDVEALKKAFQGGSSVFLLTPENPESENFINEIQRIMSNYREAVLSSGISKIVGLSSMGAQHKSGTGNLMASYMLEHAFSDLEIEQVFVRPAYYFSNWLGYLELVREYGILPTFFPPELELPMIAPPDVAGFLSDVMTCKTQQERIYEISGPHDYSSSDIAKIFGDVLNKNVTLQQVLPEEWENTLIQAGFSKDGTRNLMLMTKAVIDGKTKNETTNRLRFSTNFKNYLQSVILNMSEGHHHHHH` = soluble

soluble on expression in E. coli measured on `MGSDKIHHHHHHGEYNKLLKSTDYEYKYEAAKNYFAKGQYNRSATLLNELITILKGTDKAEESLYMLGMSYYNQKDYQTAAQTFITYFNTYPRGTFTELARFHAGKSLFLDTPEPRLDQSSTYQAIQQLQMFMEYFPNSTKKQEAQDMIFALQDKLVLKELYSAKLYYNLGNYLGNNYESCVITAQNALKDYPYTDYREELSILILRARHEMAIYSVEDKKMDRYRETIDEYYAFKNEFPESKYLKEAEKIFNESQKVIKD` = not soluble

soluble on expression in E. coli measured on `MRSMKVFISIGVVLSVVNCIFFDHGDSSDGSYSDSSGEGRGHHHKHGPRPPRPNRPPRPPPATPPPTTPAPSCPGGWSLIHRRRGPWCIQVFNGAAGLEGSNNACRAQGAVLSSVENAQERETIARLGLEKMLPTGWKYGTIRVGLRKNSQGAPWYNTDGSTDANNLEGVLWSPAEPRNGNWGGVQLNCATMWLWGGIFEGGRIHGQFFTNICLANNPNDRYRGYVCGKPA` = not soluble
